Molecular target: Group IIA purified human synovial sPLA2 (Homo sapiens, UniProt P14555)
Construct: purchased Cayman, USA
Sequence (P14555 21-144): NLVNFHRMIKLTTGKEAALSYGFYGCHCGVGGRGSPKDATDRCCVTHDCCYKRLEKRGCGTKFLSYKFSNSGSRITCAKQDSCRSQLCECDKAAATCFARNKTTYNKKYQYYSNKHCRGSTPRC
Assay: In vitro inhibition of purified human synovial sPLA2, 3H-labelled E. coli membranes
Assay type: biochemical
Conditions: fixed peptide concentration 5 μM
result.type: Mean % Inhibition

| substance | recorded.measurement |
| --- | --- |
| IHVWDG [PIP (61–66)] | n.s. |
| IHVWDGV [PIP (61–67)] | n.s. |
| DIHVWDG [PIP (60–66)] | n.s. |

Sourced from patent US7176281B2
